System: ATP;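 also: ATP exposure 15 min at 22 °C before imaging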
assay-protocol: switch fluorescence ratio, 500 uM ATP over buffer (Cy3 cluster intensity, sum of 5 cycles each) (fold (ratio)); higher = stronger signal-on switching upon ATP binding; sequences stand for … in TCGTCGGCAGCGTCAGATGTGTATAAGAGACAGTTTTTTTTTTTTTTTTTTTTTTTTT…TC
condition-details: aptamer strand: ATP DNA aptamer (quencher-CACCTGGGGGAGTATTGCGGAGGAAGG + anchor), 100 nM annealed; ATP concentration: 500 uM
Given measured switch fluorescence ratio, output t if it is greater than or equal to 1 and f if not.

TACATTTTAC | t
CAGCAACATG | t
CAGGTAGTGC | t
GTCGGGATAT | t
TAGAGGCTGC | f

---

System: ATP;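 also: ATP exposure 15 min at 22 °C before imaging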
assay-protocol: switch fluorescence ratio, 500 uM ATP over buffer (Cy3 cluster intensity, sum of 5 cycles each) (fold (ratio)); higher = stronger signal-on switching upon ATP binding; sequences stand for … in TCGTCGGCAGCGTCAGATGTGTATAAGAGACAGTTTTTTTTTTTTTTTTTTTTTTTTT…TC
condition-details: aptamer strand: ATP DNA aptamer (quencher-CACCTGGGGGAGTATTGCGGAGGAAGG + anchor), 100 nM annealed; ATP concentration: 500 uM
property-label: switch fluorescence ratio

ACTTTTTAGG | 1.01
AACCATTTGG | 0.982
GTTCTGGGCT | 0.973
GGACATAATT | 1.01
TATACAACGA | 1.03
AGGGTCTTTA | 0.999
TATCGCGTTC | 1.09
TGGTTCAGTG | 0.993
GTCTGGGCGG | 0.992
TTAATTTTTT | 0.995
GGATTTGGTG | 1
GGTAGGTGGT | 0.98
TAGGTCCTTG | 0.985
CAGGACTGTT | 1.02
TGGGTGTGGG | 1.02
TTATCGGGAC | 1
GGACAGGGGA | 1.87
TTTATTTATA | 1.01
TCGCGGTTAT | 1.06
CTGGGAGTGG | 1.04
AGCTATTAAG | 0.995
ACTTTTCTCT | 1.02
GGGTCGGGGA | 0.976
TTAATATGCT | 0.997
GCTTTTTTTG | 1.02
ATCGGGGTAT | 0.992
CGTTCTAGTG | 0.974
TGCATTGGG | 0.975
TGATGTTACG | 0.987
GGCACTGGTA | 0.981
CAAAACAGGT | 1.01
CAGCTATTTA | 1.02
AGACCTTGGT | 0.963
GCATTTGGTC | 1.01
TCGAGATTAA | 1.01
TTGCGGCCTT | 1.09
TACTGGCTGT | 1.01
AATAAAAAAC | 1.05
TCGATGGTTT | 1.01
CCAAGCATCG | 1.2
GGGACGTGTT | 1.02
ATCGTCCCGA | 1.05
AAAGGGTGTG | 1
TTATATATAA | 1.01
AGTGGGGTGG | 0.982
AGTTGTTATT | 1.03
GGTGAGATGG | 1
CGTTATCGTG | 0.983
TGTTTGGCGG | 0.966
ATATTAGTTT | 1
TACAAAATGG | 0.997
CTAGGCCTGG | 1.01
TTTCAGGGTT | 1.03
GAGATTCTTG | 1
TTTTTCGTAT | 1.04
TGAGTCGTGT | 0.967
CTGGATGGAG | 0.993
GGTATGGATC | 0.987
GTTTTCCCGT | 1.03
AGAAACGGAG | 1.02
TGTGCTCGGA | 1.04
GCGCTTGAGG | 1.01
GATCGTTGGT | 0.991
TGGTGTCGTG | 0.999
GGGAAGGGAT | 0.981
TTCACTGGTC | 1.02
TTTTAACAAT | 1.02
CGGGGAGAC | 1.02
AAGTTATGAG | 1.01
TCGGCGTTGG | 1.03
GGTAACCGCT | 1.01
GTTCCTTTTT | 1.02
CTCGGGGGTT | 1.06
ACTTGATAGG | 1.03
TTGCCTGTAT | 0.973
TGCGTGTCTT | 1.01
TCTTTTTGCA | 1.03
TATTCAGCTA | 1.07
AGGTCATTGA | 1
ACATTTTGTT | 0.972
TAACTAGGGG | 1.49
ACTGGGTCCG | 1
GGGTAAAGCT | 1.14
CCACAATCAG | 1.27
AGCTGGGGGA | 1.05
GTTAGTGGCT | 0.991
